Measured values drawn from paper PMC3806051 for this set.

# Study target: recombinant human His-tagged MDM2 protein (residues 1–118) (Homo sapiens, UniProt Q00987)
# Assay summary: FP-based competitive protein binding assay
# Condition parameters: calculated from IC50; FP competitive binding to MDM2, incubation 15 min
pKi: −log10 of the molar value.

Compound: CN(C)C(=O)[C@@H]1N[C@@H](CC(C)(C)C)[C@@]2(C(=O)Nc3cc(Cl)c(F)cc32)[C@H]1c1cccc(Cl)c1 [10b]
pKi: 6.95
//
Compound: CNC(=O)[C@@H]1N[C@H](CC(C)(C)C)[C@]2(C(=O)Nc3cc(Cl)ccc32)[C@H]1c1cccc(Cl)c1F [4a]
pKi: 7.29
//
Compound: CNC(=O)[C@@H]1N[C@@H](CC(C)(C)C)[C@@]2(C(=O)Nc3cc(Cl)ccc32)[C@H]1c1cccc(Cl)c1F [4b]
pKi: 8.62
//
Compound: CNC(=O)[C@@H]1N[C@@H](CC(C)(C)C)[C@@]2(C(=O)Nc3cc(Cl)c(F)cc32)[C@H]1c1cccc(Cl)c1 [11b]
pKi: 7.85

====

# Tested on: SJSA-1 osteosarcoma cell line
# Assay summary: cells
# Condition parameters: Homo sapiens, SJSA-1, 72 h, read-out: IC50 cell growth inhibition

Input smiles: CC(C)(C)C[C@H]1N[C@@H](C(=O)NCC[C@H](O)CO)[C@H](c2cccc(Cl)c2F)[C@@]12C(=O)Nc1cc(Cl)ccc12
Quantity unit: nM
IC50: 180
--
Input smiles: CC(C)(C)C[C@@H]1N[C@@H](C(=O)NCC[C@H](O)CO)[C@H](c2cccc(Cl)c2F)[C@]12C(=O)Nc1cc(Cl)ccc12
Quantity unit: nM
IC50: 180

====

# Study target: recombinant human His-tagged MDM2 protein (residues 1–118) (Homo sapiens)
# Assay summary: FP-based competitive protein binding assay

Input smiles: CNC(=O)[C@@H]1N[C@H](CC(C)(C)C)[C@]2(C(=O)Nc3cc(Cl)ccc32)[C@H]1c1cccc(Cl)c1
IC50 [nM]: 565
--
Input smiles: CNC(=O)[C@@H]1N[C@@H](CC(C)(C)C)[C@@]2(C(=O)Nc3cc(Cl)ccc32)[C@H]1c1cccc(Cl)c1
IC50 [nM]: 30.9
--
Input smiles: CCOC(=O)[C@@H]1N[C@@H](CC(C)(C)C)[C@@]2(C(=O)Nc3cc(Cl)ccc32)[C@H]1c1cccc(Cl)c1F
IC50 [nM]: 721
--
Input smiles: CC(C)(C)C[C@@H]1N[C@@H](C(N)=O)[C@H](c2cccc(Cl)c2F)[C@]12C(=O)Nc1cc(Cl)ccc12
IC50 [nM]: 22.5
--
Input smiles: CC(C)(C)C[C@@H]1N[C@@H](C(=O)O)[C@H](c2cccc(Cl)c2F)[C@]12C(=O)Nc1cc(Cl)ccc12
IC50 [nM]: 55.1
--
Input smiles: CCOC(=O)[C@@H]1N[C@H](CC(C)(C)C)[C@]2(C(=O)Nc3cc(Cl)ccc32)[C@H]1c1cccc(Cl)c1F
IC50 [nM]: 19500
--
Input smiles: CC(C)(C)C[C@H]1N[C@@H](C(=O)O)[C@H](c2cccc(Cl)c2F)[C@@]12C(=O)Nc1cc(Cl)ccc12
IC50 [nM]: 498

====

# Ki annotations
# Study target: recombinant human His-tagged MDM2 protein (residues 1–118) (Homo sapiens, UniProt Q00987)
# Assay summary: FP-based competitive protein binding assay
Measure name: Ki

Compound: CC(C)(C)C[C@@H]1N[C@@H](C(=O)O)[C@H](c2cccc(Cl)c2F)[C@]12C(=O)Nc1cc(Cl)ccc12 [8b]
Endpoint value: 6.4 nM
--
Compound: CCOC(=O)[C@@H]1N[C@H](CC(C)(C)C)[C@]2(C(=O)Nc3cc(Cl)ccc32)[C@H]1c1cccc(Cl)c1F [7a]
Endpoint value: 2700 nM
--
Compound: CCOC(=O)[C@@H]1N[C@@H](CC(C)(C)C)[C@@]2(C(=O)Nc3cc(Cl)ccc32)[C@H]1c1cccc(Cl)c1F [7b]
Endpoint value: 97.5 nM
--
Compound: CNC(=O)[C@@H]1N[C@@H](CC(C)(C)C)[C@@]2(C(=O)Nc3cc(Cl)ccc32)[C@H]1c1cccc(Cl)c1 [2b]
Endpoint value: 3.1 nM
